Overview of recorded viability at 3 days, 10 µM for various compounds
Assay: AlamarBlue viability assay in ATDC5/FOP-ACVR1
Settings: mouse, ATDC5 cells stably expressing FOP-ACVR1 (ATDC5/FOP-ACVR1)

Smiles Data	viability at 3 days, 10 µM [%]
C=C1/C(=C\C=C2/CCC[C@]3(C)[C@@H]([C@H](C)/C=C/[C@@H](O)C4CC4)CC[C@@H]23)C[C@@H](O)C[C@@H]1O	80
C=C1/C(=C\C=C2/CCC[C@]3(C)[C@@H]([C@H](C)CCCC(C)C)CC[C@@H]23)C[C@@H](O)C[C@@H]1O	54
Cn1c(=O)n(-c2ccc(C(C)(C)C#N)cc2)c2c3cc(-c4cnc5ccccc5c4)ccc3ncc21	21
CC(C)(C)Cn1c(N)nc2ccc(-c3[nH]c(C(C)(C)C)nc3-c3ccc(F)cc3)nc21	75
Cc1ccc(-n2nc(C(C)(C)C)cc2NC(=O)Nc2ccc(OCCN3CCOCC3)c3ccccc23)cc1	99
COc1ccc(-c2ccc3c(N4CCOC[C@@H]4C)nc(N4CCOC[C@@H]4C)nc3n2)cc1CO	25
C=C1/C(=C\C=C2/CCC[C@]3(C)[C@@H]([C@H](C)CCCC(C)(C)O)CC[C@@H]23)C[C@@H](O)C[C@@H]1O	81
